B1: Ankyrin-1, residues 1405 to 1484; numbered along this chain, P16157 (parent)
chain: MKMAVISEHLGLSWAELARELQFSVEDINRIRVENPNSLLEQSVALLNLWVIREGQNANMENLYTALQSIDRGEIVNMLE

- Variants of: B1
- ASSAY_COMMENT: abundance fitness (aPCA) (normalised: wild type 0, dead -1); higher = more abundant; growth selection in yeast, the domain comes from the species named
- MEASUREMENT_CONDITIONS: Homo sapiens
READOUT_TYPE: abundance fitness
Form rule: numeric answer, no unit written next to it.

L47C : -0.061
T65C : -0.002
L79F : -0.331
S24W : -0.925
I70L : -0.762

Problem: Looking for the measured abundance fitness of E26F , can you help?
Solution: -0.369

Problem: Looking for the measured abundance fitness of A58I , can you help?
Solution: -0.008

Problem: Looking for the measured abundance fitness of E80L , can you help?
Solution: -0.329

Problem: Looking for the measured abundance fitness of N77K , can you help?
Solution: 0.03

Problem: Looking for the measured abundance fitness of N59T , can you help?
Solution: -0.338

Problem: Looking for the measured abundance fitness of D71A , can you help?
Solution: -0.229

Problem: Looking for the measured abundance fitness of V33G , can you help?
Solution: -0.041

Problem: Looking for the measured abundance fitness of D71H , can you help?
Solution: -0.192

Problem: Looking for the measured abundance fitness of Y64H , can you help?
Solution: -0.312

Problem: Looking for the measured abundance fitness of Q56A , can you help?
Solution: -0.113

This collection of values is drawn from the Human Domainome abundance scans (Beltran et al. 2025).
